Overview of reported inhibition at 200 µg/mL across a group of molecules:
Target: xanthine oxidase (Bos taurus, UniProt P80457)
Construct: purchased Sigma (St. Louis, MO, USA)
Sequence (P80457 2-1332 limits assumed): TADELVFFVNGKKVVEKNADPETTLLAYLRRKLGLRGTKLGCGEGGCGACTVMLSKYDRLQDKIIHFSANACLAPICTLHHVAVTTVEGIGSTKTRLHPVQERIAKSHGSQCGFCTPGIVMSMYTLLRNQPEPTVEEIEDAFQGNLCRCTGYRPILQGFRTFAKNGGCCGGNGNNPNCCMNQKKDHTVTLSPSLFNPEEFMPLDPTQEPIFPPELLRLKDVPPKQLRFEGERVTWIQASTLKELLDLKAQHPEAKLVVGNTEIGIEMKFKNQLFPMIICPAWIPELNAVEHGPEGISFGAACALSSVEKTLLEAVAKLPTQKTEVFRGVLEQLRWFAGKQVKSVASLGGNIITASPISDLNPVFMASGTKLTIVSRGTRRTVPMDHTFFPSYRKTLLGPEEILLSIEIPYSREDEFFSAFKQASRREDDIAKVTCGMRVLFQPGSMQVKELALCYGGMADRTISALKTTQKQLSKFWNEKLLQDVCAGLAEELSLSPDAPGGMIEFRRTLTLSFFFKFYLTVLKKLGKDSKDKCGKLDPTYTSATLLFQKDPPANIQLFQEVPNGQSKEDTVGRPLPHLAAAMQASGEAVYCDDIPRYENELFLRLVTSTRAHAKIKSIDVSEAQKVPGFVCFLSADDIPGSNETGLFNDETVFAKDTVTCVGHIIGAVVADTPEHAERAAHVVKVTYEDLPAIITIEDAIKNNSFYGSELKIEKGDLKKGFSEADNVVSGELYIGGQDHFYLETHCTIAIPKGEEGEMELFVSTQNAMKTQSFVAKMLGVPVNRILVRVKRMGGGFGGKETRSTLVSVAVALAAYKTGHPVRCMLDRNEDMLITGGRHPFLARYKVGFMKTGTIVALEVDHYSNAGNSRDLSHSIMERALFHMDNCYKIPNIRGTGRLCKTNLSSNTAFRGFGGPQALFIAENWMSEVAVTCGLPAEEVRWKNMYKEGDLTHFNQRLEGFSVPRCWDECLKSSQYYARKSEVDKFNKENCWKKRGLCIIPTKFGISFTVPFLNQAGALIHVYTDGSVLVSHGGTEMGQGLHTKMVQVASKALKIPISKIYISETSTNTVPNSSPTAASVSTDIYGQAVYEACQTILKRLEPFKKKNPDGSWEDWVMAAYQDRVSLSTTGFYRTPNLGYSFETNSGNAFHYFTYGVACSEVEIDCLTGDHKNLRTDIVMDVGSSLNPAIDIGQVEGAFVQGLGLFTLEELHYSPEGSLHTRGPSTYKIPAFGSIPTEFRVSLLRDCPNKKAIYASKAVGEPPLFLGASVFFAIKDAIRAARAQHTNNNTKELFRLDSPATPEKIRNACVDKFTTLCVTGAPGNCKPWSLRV
Assay: Xanthine oxidase inhibition assay (uric acid production from xanthine, 295 nm)
Assay type: biochemical
Conditions: xanthine oxidase, 200 μg/ml; read-out: Inhibition (%) at 200 μg/ml
observable: inhibition at 200 µg/mL

molecule	assay target	observable	reported measurement
O=C(O)/C=C/c1ccc(O)cc1	xanthine oxidase (Bos taurus, UniProt P80457)	inhibition at 200 µg/mL	57.4%
O=C(O)/C=C/c1cccc(O)c1	xanthine oxidase (Bos taurus, UniProt P80457)	inhibition at 200 µg/mL	52.8%
O=C(O)CCc1ccc(O)cc1 [4-Hydroxyphenylpropionic acid, 4-hydroxyphenylpropionic acid]	xanthine oxidase (Bos taurus, UniProt P80457)	inhibition at 200 µg/mL	29.4%
O=C(O)Cc1cccc(O)c1 [3-Hydroxyphenylacetic acid, 3-hydroxyphenylacetic acid]	xanthine oxidase (Bos taurus, UniProt P80457)	inhibition at 200 µg/mL	21.1%

----------
Overview of reported Urinary excretion, phenolic acids across a group of compounds:
Assay: Urinary excretion of procyanidins and metabolites in rats after oral LPPC (HPLC / LC-MS)
Assay type: in vivo, rat
Conditions: rat urine 0-24 h after oral LPPC 300 mg/kg, after glucuronidase/sulfatase deconjugation
Procedure: Male Sprague-Dawley rats weighing 220 ± 20 g were randomly divided into two groups (n = 20) with 10 rats in each group. Prior to administration, animals were deprived of food for 12 h, but had access to deionized water. […] Selected samples were analyzed on an Agilent 1100 LC-ESI-MS system (Agilent Technologies Co. Ltd., Foster City, California, USA) to identify metabolites in urine. […] The flow rate was 0.2 ml/min and the absorbance of the eluate was monitored at 280 nm. […]

compound	Urinary excretion, phenolic acids [nmol]
O=C(O)CCc1ccc(O)cc1 [4-Hydroxyphenylpropionic acid, 4-hydroxyphenylpropionic acid]	60.54
COc1cc(C(=O)O)ccc1O	6.62
O=C(O)Cc1cccc(O)c1 [3-Hydroxyphenylacetic acid, 3-hydroxyphenylacetic acid]	46.98
O=C(O)CCc1cccc(O)c1 [3-Hydroxyphenylpropionic acid, 3-hydroxyphenylpropionic acid]	12.87
O=C(O)C1=C[C@@H](O)[C@@H](O)[C@H](O)C1	27.22
O=C(O)/C=C/c1ccc(O)cc1	13.89
O=C(O)/C=C/c1ccc(O)c(O)c1	20.67
O=C(O)/C=C/c1cccc(O)c1	39.01

----------
Target: xanthine oxidase (Bos taurus, UniProt P80457)
Construct: purchased Sigma (St. Louis, MO, USA)
Assay: Xanthine oxidase inhibition assay (uric acid production from xanthine, 295 nm)
Assay type: biochemical
Details: xanthine oxidase, 200 μg/ml; read-out: Inhibition (%) at 200 μg/ml

molecule	inhibition at 200 µg/mL
Oc1cc(O)c2c(c1)OC1(c3ccc(O)c(O)c3)Oc3cc(O)c4c(c3C2C1O)OC(c1ccc(O)c(O)c1)C(O)C4c1c(O)cc(O)c2c1OC(c1ccc(O)c(O)c1)C(O)C2 (stereo not drawn)	> 50%
O=C(O)CCc1cccc(O)c1 [3-Hydroxyphenylpropionic acid, 3-hydroxyphenylpropionic acid]	27%
O=C(O)C1=C[C@@H](O)[C@@H](O)[C@H](O)C1	> 50%

----------
Target: xanthine oxidase (Bos taurus, UniProt P80457)
Construct: purchased Sigma (St. Louis, MO, USA)
Assay: Xanthine oxidase inhibition assay (uric acid production from xanthine, 295 nm)
Format: biochemical
Conditions: read-out: IC50 (μg/ml) xanthine oxidase (converted)

compound	qualifier operator	IC50 (µM)
Oc1cc(O)c2c(c1)OC1(c3ccc(O)c(O)c3)Oc3cc(O)c4c(c3C2C1O)OC(c1ccc(O)c(O)c1)C(O)C4 (centres unmarked) [A-type dimer]	=	119
COc1cc(C(=O)O)ccc1O [Vanillic acid, vanillic acid]	>	1190
O=C(O)Cc1cccc(O)c1 [3-Hydroxyphenylacetic acid, 3-hydroxyphenylacetic acid]	>	1310
O=C(O)/C=C/c1ccc(O)c(O)c1 [Caffeic acid, caffeic acid]	=	531
O=C(O)CCc1cccc(O)c1 [3-Hydroxyphenylpropionic acid, 3-hydroxyphenylpropionic acid]	>	1200
O=C(O)/C=C/c1cccc(O)c1 [m-Coumaric acid, m-coumaric acid]	=	942
O=C(O)CCc1ccc(O)cc1 [4-Hydroxyphenylpropionic acid, 4-hydroxyphenylpropionic acid]	>	1200
O=C(O)/C=C/c1ccc(O)cc1 [p-Coumaric acid, p-coumaric acid]	=	852

# credit: paper PMC8490629
